# Kb annotations
# target: human orexin-2 (hOX2) receptors (Homo sapiens, UniProt O43614)
# Construct: expressed in transfected cells
# Sequence (O43614 whole entry): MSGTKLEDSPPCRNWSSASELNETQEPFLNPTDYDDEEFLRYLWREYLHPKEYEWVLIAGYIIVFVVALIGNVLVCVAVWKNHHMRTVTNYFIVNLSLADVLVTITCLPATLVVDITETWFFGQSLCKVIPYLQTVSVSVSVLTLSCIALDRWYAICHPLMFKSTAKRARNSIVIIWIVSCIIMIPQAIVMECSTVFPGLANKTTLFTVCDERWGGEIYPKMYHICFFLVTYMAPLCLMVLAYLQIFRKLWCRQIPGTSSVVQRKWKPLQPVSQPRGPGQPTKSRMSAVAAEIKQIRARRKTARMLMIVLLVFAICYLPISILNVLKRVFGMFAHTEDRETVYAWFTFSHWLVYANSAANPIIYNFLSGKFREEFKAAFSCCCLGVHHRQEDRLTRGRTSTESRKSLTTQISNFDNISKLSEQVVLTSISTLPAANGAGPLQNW
# procedure-summary: Intracellular Ca2+ mobilization assay (FLIPR), CHO(dHFr-) cells expressing hOX2
# Format: cell-based
# condition-info: antagonism of orexin-A at EC80; Kb=IC50/(1+[A]/EC50); CHO(dHFr-)-OX2R cells
endpoint: Kb

- molecule: "COc1cc(N(CCc2ccc(C(F)(F)F)cc2)C(=O)C(C(=O)N(C)C)c2ccccc2)ccc1Cl (stereo not drawn)"
  measured: "0.055 µM"
- molecule: "CNC(=O)C(C(=O)N(CCc1ccc(C(F)(F)F)cc1)c1ccc(OC)c(OC)c1)c1ccccc1 (stereo not drawn)"
  measured: "0.0255 µM"
- molecule: "COc1ccc(N(CCc2ccc(C(F)(F)F)cc2)C(=O)C(C(=O)NC2CCOCC2)c2ccccc2)cc1OC (stereo not drawn)"
  measured: "0.023 µM"

* * *

# Kb annotations
# target: human orexin-1 (hOX1) receptors (Homo sapiens, UniProt O43613)
# Construct: expressed in transfected cells
# Sequence (O43613 whole entry): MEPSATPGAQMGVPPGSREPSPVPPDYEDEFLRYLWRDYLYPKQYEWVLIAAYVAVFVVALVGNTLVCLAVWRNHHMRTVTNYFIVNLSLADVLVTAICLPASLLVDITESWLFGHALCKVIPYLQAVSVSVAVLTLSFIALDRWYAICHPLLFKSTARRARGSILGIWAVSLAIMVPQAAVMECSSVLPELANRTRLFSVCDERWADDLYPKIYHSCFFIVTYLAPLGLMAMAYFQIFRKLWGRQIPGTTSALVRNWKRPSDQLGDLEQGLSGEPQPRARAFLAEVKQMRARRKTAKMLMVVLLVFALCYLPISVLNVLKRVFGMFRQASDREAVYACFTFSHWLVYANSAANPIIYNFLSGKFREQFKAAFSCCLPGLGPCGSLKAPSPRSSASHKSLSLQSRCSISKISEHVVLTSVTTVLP
# procedure-summary: Intracellular Ca2+ mobilization assay (FLIPR), CHO(dHFr-) cells expressing hOX1
# Format: cell-based
# condition-info: antagonism of orexin-A at EC80; Kb=IC50/(1+[A]/EC50); CHO(dHFr-)-OX1R cells
endpoint: Kb (µM)

- compound: "CCCNC(=O)C(C(=O)N(CCc1ccc(C(F)(F)F)cc1)c1ccc(OC)c(OC)c1)c1ccccc1 (stereo not shown) [Example 19]"
  target: "human orexin-1 (hOX1) receptors (Homo sapiens, UniProt O43613)"
  endpoint: "Kb"
  measured: 0.245
- compound: "COc1cc(N(CCc2ccc(C(F)(F)F)cc2)C(=O)C(C(=O)N(C)C)c2ccccc2)ccc1Cl (stereo not shown) [Example 56]"
  target: "human orexin-1 (hOX1) receptors (Homo sapiens, UniProt O43613)"
  endpoint: "Kb"
  measured: 0.295
- compound: "COc1ccc(N(CCc2ccc(C(F)(F)F)cc2)C(=O)C(C(=O)NCC(F)F)c2ccccc2)cc1OC (stereo not shown) [Example 21]"
  target: "human orexin-1 (hOX1) receptors (Homo sapiens, UniProt O43613)"
  endpoint: "Kb"
  measured: 0.173
- compound: "COCCNC(=O)C(C(=O)N(CCc1ccc(C(F)(F)F)cc1)c1ccc(OC)c(OC)c1)c1ccccc1 (stereo not shown) [Example 5]"
  target: "human orexin-1 (hOX1) receptors (Homo sapiens, UniProt O43613)"
  endpoint: "Kb"
  measured: 0.229

Data origin: patent US7501541B2
